# target_or_system: T1, MKN45-HGF (Homo sapiens, UniProt P08581)
# T1 construct: MKN45 cells expressing c-MET antigens; endogenous in cells; host or cells: MKN45
# T1 sequence (P08581 25-1390): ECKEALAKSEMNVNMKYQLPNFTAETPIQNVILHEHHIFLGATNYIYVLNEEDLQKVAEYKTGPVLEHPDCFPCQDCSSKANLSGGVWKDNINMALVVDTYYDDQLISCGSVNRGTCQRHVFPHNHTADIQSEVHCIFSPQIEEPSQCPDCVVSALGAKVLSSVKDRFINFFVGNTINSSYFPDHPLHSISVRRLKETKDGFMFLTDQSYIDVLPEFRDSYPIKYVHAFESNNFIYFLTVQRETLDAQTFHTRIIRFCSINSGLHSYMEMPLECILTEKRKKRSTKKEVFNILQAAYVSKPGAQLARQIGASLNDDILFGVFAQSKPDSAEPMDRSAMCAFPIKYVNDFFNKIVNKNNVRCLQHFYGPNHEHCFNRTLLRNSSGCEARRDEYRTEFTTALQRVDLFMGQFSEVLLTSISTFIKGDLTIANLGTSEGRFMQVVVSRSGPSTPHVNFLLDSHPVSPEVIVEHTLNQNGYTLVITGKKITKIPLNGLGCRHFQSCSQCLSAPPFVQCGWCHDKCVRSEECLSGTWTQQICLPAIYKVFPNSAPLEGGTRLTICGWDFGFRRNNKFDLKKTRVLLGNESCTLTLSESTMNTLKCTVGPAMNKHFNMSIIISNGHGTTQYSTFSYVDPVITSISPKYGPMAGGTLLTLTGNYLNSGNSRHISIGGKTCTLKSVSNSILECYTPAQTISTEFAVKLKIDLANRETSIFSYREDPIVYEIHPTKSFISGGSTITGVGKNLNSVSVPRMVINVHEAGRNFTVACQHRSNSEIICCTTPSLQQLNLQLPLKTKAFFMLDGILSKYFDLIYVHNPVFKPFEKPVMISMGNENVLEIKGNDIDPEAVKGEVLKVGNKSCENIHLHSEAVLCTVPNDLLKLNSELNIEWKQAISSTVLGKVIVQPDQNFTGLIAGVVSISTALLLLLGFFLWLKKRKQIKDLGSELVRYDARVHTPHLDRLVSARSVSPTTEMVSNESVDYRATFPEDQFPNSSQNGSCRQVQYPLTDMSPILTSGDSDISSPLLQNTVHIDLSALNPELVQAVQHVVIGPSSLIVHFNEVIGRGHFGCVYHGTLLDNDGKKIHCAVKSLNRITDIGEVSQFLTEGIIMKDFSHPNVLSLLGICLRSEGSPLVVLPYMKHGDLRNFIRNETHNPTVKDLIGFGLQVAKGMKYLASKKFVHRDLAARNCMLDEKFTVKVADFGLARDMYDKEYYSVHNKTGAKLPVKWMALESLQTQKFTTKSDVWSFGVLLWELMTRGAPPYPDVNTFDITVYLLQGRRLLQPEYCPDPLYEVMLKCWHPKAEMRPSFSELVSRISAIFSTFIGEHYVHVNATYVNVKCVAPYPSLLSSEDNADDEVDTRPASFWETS
# measurement_description: FACS blocking of MKN45-HGF ligand competition (murine-derived antibodies)
# Format: binding
measured_attribute: MKN45-HGF competition (IC50 = ng/ml)
Record the result as a number with its unit.

MKN45-HGF competition (IC50 = ng/ml) recorded for this molecule, 55A10G6: murine-derived anti-cMET monoclonal antibody; VL SEQ ID NO: 3, VH SEQ ID NO: 4 (antibody, V domains shown) VH: QIQLQQSGPELVKPGASVKISCKASGYTFTDYYLNWVRQRPGQGLEWIGWIFPGSGNTKYIEKFKGKATLTVDTSSSTAYMLLSSLTSEDSAVYFCAGGDYGGFTYWGQGTLVAVSA VL: DIQMTQSPPSLSASVGETVTITCGASENIYGALNWYQRKQGKSPQLLIYGATNLAAGMSSRFSGSGSGRQFSLKISSLHPDDVATYYCQNVLSEPLTFGAGTKLELK , is 31.28 ng/mL

Values from patent US20260216354A1
